I'd be grateful if you could share measured viability at 48 h, 100 molar ratio for these entries.
# ASSAY_DETAILS: Cytotoxicity against human Raji cells assessed as cell viability at 100 molar ratio after 48 hrs
# Assay type: cell-based
# ASSAY_CONTEXT: read-out: Activity

CC(=O)O[C@@]1(C)C[C@@H](O)[C@]2(O)C=CO[C@@H](O[C@@H]3O[C@H](CO)[C@@H](O)[C@H](O)[C@H]3O)[C@@H]21
> 80%
COc1ccc(CCO[C@@H]2O[C@H](CO)[C@@H](O)[C@H](O[C@@H]3O[C@@H](C)[C@H](O)[C@@H](O)[C@H]3O)[C@H]2O)cc1O [DARENDOSIDE A]
> 80%

Could you now consider this next compound?
**Q:** Give the measured viability at 48 h, 100 molar ratio of CC(=O)O[C@@]1(C)CC[C@]2(O)C=CO[C@@H](O[C@@H]3O[C@H](CO)[C@@H](O)[C@H](O)[C@H]3O)[C@@H]21 [REPTOSIDE] .
**A:** > 80%
